These measurements were taken from PubChem BioAssay (NCI).

- Test system: SK-OV-3 ovarian
- ASSAY_PROTOCOL: NCI tumour cell line growth inhibition, 48 h
MEASURE_NAME: GI50

Worked cases, answers included:
[
  {
    "COMPOUND": "Cc1ccc(C2=NN(c3ccc(S(N)(=O)=O)cc3)C(c3cn(-c4ccccc4)nc3-c3ccccc3)C2)cc1 (stereo not given)",
    "GI50": "> 100 µM"
  },
  {
    "COMPOUND": "C=C1C(=O)O[C@H]2[C@H]1CC/C(COC(=O)NCc1cc(OC)cc(OC)c1)=C\\CC[C@@]1(C)O[C@@H]21",
    "GI50": "12.8 µM"
  },
  {
    "COMPOUND": "N#Cc1nn(-c2cc(=O)[nH]c3ccc(Br)cc23)c(N)c1C#N",
    "GI50": "> 100 µM"
  },
  {
    "COMPOUND": "Fc1ccc(-c2nc(Nc3ccc(-c4nc5ccccc5[nH]4)cc3)nc(N3CCOCC3)n2)cc1",
    "GI50": "1.84 µM"
  }
]

Lab note: next compound to report on.
Ask | Given Cc1nn(C)c2cc(N(C)c3ccnc(Nc4cccc(S(N)(=O)=O)c4)n3)ccc12 , respond with its GI50.
Reply | > 11.8 µM
